Biological target: Fuc(a1-2)[GalNAc(a1-3)]Gal(b1-4)GlcNAc(b1-2)Man(a1-3)[Fuc(a1-2)[GalNAc(a1-3)]Gal(b1-4)GlcNAc(b1-2)Man(a1-6)]Man(b1-4)GlcNAc(b1-4)GlcNAc
Assay: glycan array binding signal (z-score within array); higher = stronger binding
Settings: glycan notation: IUPAC condensed, linker removed
This is one part of a sample in which the strongest signals are shown more often than they occur.
Reported glycan array binding signal (z-score) by item:
Enter the number alone.

Please review the entries below; each comes with its answer.
[
  {
    "Binder": "SBD-G4S3-SBD (protein) MASIPSSASVQLDSYNYDGSTFSGKIYVKNIAYSKKVTVVYADGSDNWNNNGNIIAASFSGPISGSNYEYWTFSASVKGIKEFYIKYEVSGKTYYDNNNSANYQVSTGGGGSGGGGSGGGGSEFASIPSSASVQLDSYNYDGSTFSGKIYVKNIAYSKKVTVVYADGSDNWNNNGNIIAASFSGPISGSNYEYWTFSASVKGIKEFYIKYEVSGKTYYDNNNSANYQVST",
    "Endpoint value": 6.16
  },
  {
    "Binder": "BSR4 (Toxoplasma gondii), Q95NL6 (protein) MVMMGSMQQRRGGLRSNARQLLAVCMSGVVFFSSGQAVADNLLEGLLHRTLQQQVEVTSRLTVAGSDAKCDFFTPATQDSPPVSGSLTLSKGRMTATFECSATQALSISTIPTNIEQNVCDPKKTTNGTVCQFGANGSAGTEVTLKDLLETDRIVNWKVNEQREESNKSQKWSLELHNEDLPLTDKAFVVGCQATSAARGTESGKTAACKLTVNVEARASSLAENNVVTCAYGKGSNPNPVEVEMSTEKNTLTINCGSDGSLQPTTYAEEYCVADSKDVNRCSTTRFVEIFPKFLKSWWVTETQKRTSATLTIPQTDLPEADQQFLVGCVPKKTAPEDPKKDKESGTETGAPTSCTVLVTVKAASSASHASPTVQILAAASSAAA",
    "Endpoint value": -0.071
  }
]

Inquiry: Consider the binder Epa1to9 (Candida glabrata) (protein) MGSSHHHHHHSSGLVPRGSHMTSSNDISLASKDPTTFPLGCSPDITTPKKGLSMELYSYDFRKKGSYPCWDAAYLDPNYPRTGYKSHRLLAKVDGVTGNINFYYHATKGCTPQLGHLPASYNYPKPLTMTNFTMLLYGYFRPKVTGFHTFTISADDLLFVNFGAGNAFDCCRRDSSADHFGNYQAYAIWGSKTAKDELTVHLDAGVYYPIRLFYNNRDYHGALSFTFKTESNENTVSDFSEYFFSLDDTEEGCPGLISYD . State its measured glycan array binding signal (z-score).
Reply text: -0.318

Inquiry: Entry PEB1 (Campylobacter jejuni), Q0P9X8 (protein) MVFRKSLLKLAVFALGACVAFSNANAAEGKLESIKSKGQLIVGVKNDVPHYALLDQATGEIKGFEVDVAKLLAKSILGDDKKIKLVAVNAKTRGPLLDNGSVDAVIATFTITPERKRIYNFSEPYYQDAIGLLVLKEKKYKSLADMKGANIGVAQAATTKKAIGEAAKKIGIDVKFSEFPDYPSIKAALDAKRVDAFSVDKSILLGYVDDKSEILPDSFEPQSYGIVTKKDDPAFAKYVDDFVKEHKNEIDALAKKWGL needs its glycan array binding signal (z-score) filled in; supply it.
Reply text: 1.37

Inquiry: Please look at this binder and report its glycan array binding signal (z-score): Pwp3 (Candida glabrata) (protein) MGSSHHHHHHSSGLVPRGSHMASKNPVDFTTVCQFPDNFSKKPGFLATTARLGLWITGNSYKELLNYPGTFTLTTQQASTTTPNIQLRGTDLFTTIYGLTVYPLYLLVELQGYFVPTQSGMYTFSLTGSDDAAIIFIGNPSTFPCDAFKTWPQATANDITVTDSINPSRTLYMVKGVAYPLRIAYYNGLGNGVLNAAFTDPSGTKRTDWNGYIWQYDQCSTCTYK
Reply text: 3.9

Inquiry: Given rPitB (Streptococcus pneumoniae), A0A0I7U739 (protein) MSEIEIINAKKIYHDVPVIENLNITIPKGSLFTLLGASGCGKTTLLRMIAGFNSIKDGEFYFDDTKINNMEPSKRNIGLVFQNYAIFPHLTVRDNVAFGLMQKKVPKEELIQQTNKYLELMQIAQYAD , respond with its glycan array binding signal (z-score).
Reply text: 0.481

Inquiry: Please give the documented glycan array binding signal (z-score) of BC2L-A (Burkholderia cenocepacia), Q1BKJ8_BURCA (protein) ADSQTSSNRAGEFSIPPNTDFRAIFFANAAEQQHIKLFIGDSQEPAAYHKLTTRDGPREATLNSGNGKIRFEVSVNGKPSATDARLAPINGKKSDGSPFTVNFGIVVSEDGHDSDYNDGIVVLQWPIG
Reply text: -0.165
